Provide the recorded growth inhibition for the entries that follow.
# PROTOCOL_TEXT: NCI Yeast Anticancer Drug Screen. Data for the bub3 strain (AID 167)
# PARTICULARS: S. cerevisiae bub3 mutant strain, at 50.0 µM, active compounds read high
This is part of a sample that, as a whole, favours compounds with a hit. Of some 79,000 tested, about 15% had one in any assay.
Give bare numbers, in %.

{"COMPOUND": "CC(=O)Oc1ccccc1-c1cc2ccccc2oc1=O", "READOUT_NUMBER": 38.8}
{"COMPOUND": "CCC(O)C(C)(C)N (configuration not stated)", "READOUT_NUMBER": 4.45}
{"COMPOUND": "O=C(Cc1nccc2c1[nH]c1ccccc12)OC1C#CCSCC#C/C=C\\1 (configuration not stated)", "READOUT_NUMBER": 12.3}
{"COMPOUND": "C[S+](C)CCOC(=O)C(=[N+]=[N-])c1ccc([N+](=O)[O-])cc1", "READOUT_NUMBER": 9.9}
{"COMPOUND": "O=C(NCCNCCCNC(=O)c1cc(-c2ccccc2)nc2ccccc12)c1cccc(O)c1O", "READOUT_NUMBER": 49.5}

Record growth inhibition per entry; entries follow.
1. CCOP(=O)(OCC)OCCCCn1cnc2c1c(=O)n(C)c(=O)n2C
2. CC1(CCl)C(=O)C=Cc2ccccc21 (configuration not stated)

A:
1: -2.65; 2: 5.3

Record growth inhibition per entry; entries follow.
1. Cc1ccc(C(C)C)c(O)c1NC(=S)N/N=C\c1cc(Cl)ccc1O
2. CN(C)/C=C(/N=C(C#N)C#N)C1OCCO1
3. O=C1Oc2ccccc2C(=O)C1=Ic1ccccc1
4. COc1ccc(C(=CC2=CC(=O)C3=C(CCCC3)C2=O)c2ccc(OC)cc2)cc1
5. O=[N+]([O-])c1ccc(/C=N\N=P(c2ccccc2)(c2ccccc2)c2ccccc2)cc1

A:
[-14.2, 3.8, 38, 0.55, -4.65]

* * *

# PROTOCOL_TEXT: NCI Yeast Anticancer Drug Screen. Data for the sgs1 mgt1 strain (AID 161);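 note: 0% = growth of cultures given vehicle only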
# PARTICULARS: S. cerevisiae sgs1 mgt1 strain, at 50.0 µM
Compounds without any hit were thinned out: in the full panel of roughly 79,000, 15% have a hit. Activity calls are given as the source filed them. Cut-off read from the data, not from the text of the source: active = growth inhibition above about 70%; inactive = the rest.
Thanks in advance; please answer with one of these: active, inactive

{"COMPOUND": "Cc1cc(=O)oc2c(-c3ccccc3)nnc(Cl)c12", "QUALITATIVE_LABEL": "inactive"}
{"COMPOUND": "OCC1OC(O)C(N=Cc2ccc3c(c2)OCO3)C(O)C1O (stereo not drawn)", "QUALITATIVE_LABEL": "inactive"}
{"COMPOUND": "CC1CC[C@]2(C(=O)O)CCC3(COC(=O)/C=C\\c4ccc(O)cc4)C(=CCC4[C@@]5(C)CC[C@H](O)C(C)(C)C5CC[C@]43C)[C@@H]2[C@H]1C (stereo partly drawn)", "QUALITATIVE_LABEL": "inactive"}

Q: Entry CC(=O)OCC1CCCCO1 (stereo not drawn) : call = ?
A: inactive

Q: Entry CC(C)C1CC[C@H](C)C[C@@H]1OC(=O)C(C(=O)O[C@H]1C[C@@H](C)CCC1C(C)C)C(O)[C@@H]1OC(C)(C)O[C@H]1C1COC(C)(C)O1 (stereo partly drawn) : call = ?
A: active

Q: Entry COc1ccc2nc3cc([N+](=O)[O-])ccc3c(Nc3ccc(S(=O)(=O)N=C(N)N)cc3)c2c1 : call = ?
A: inactive

Q: Entry COc1cccc(C2c3cc4c(cc3OC(C)(N3CCCC3)C2C)OCO4)c1OC (stereo not drawn) : call = ?
A: inactive

Q: Entry O=P(c1ccccc1)(c1ccccc1)C(O)c1cccs1 (stereo not drawn) : call = ?
A: inactive

Q: Entry CCC1CC/C(=N\Nc2ccc([N+](=O)[O-])cc2[N+](=O)[O-])c2ccc3c(C)ccc(C)c3c21 (stereo not drawn) : call = ?
A: inactive

Q: Entry CC(=O)Nc1ccc2c(c1)Cc1cc(NC(C)=O)c(Cl)cc1-2 : call = ?
A: inactive

* * *

# PROTOCOL_TEXT: NCI Yeast Anticancer Drug Screen. Data for the rad50 strain (AID 155);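 note: 0% = growth of vehicle-only cultures of the same strain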
# PARTICULARS: S. cerevisiae rad50 strain growth inhibition; at 50.0 µM; active compounds read high
This is part of a sample that, as a whole, favours compounds with a hit. Of some 79,000 tested, about 15% had one in any assay.
PROPERTY_MEASURED: growth inhibition (%)
Give bare numbers, in %.

{"MOLECULE": "CCOC(=O)NCCNC(=O)OCC", "growth inhibition (%)": 8.8}
{"MOLECULE": "COC(=O)c1ccccc1NC(=O)c1cccc(Cl)c1", "growth inhibition (%)": 20.9}
{"MOLECULE": "Cc1cccc(N2CC3CC4C=CC3(C2)O4)c1 (stereo not drawn)", "growth inhibition (%)": 13.7}
{"MOLECULE": "CCCCCOC(c1cc2c(cc1Br)OCO2)C(C)Br (stereo not drawn)", "growth inhibition (%)": 8.9}
{"MOLECULE": "CCCCCCC1OCCO1", "growth inhibition (%)": 29.8}
{"MOLECULE": "COc1ccc(C(=O)C[n+]2cc(Br)cc(Br)c2)cc1", "growth inhibition (%)": 7.9}
{"MOLECULE": "N#CCC(c1ccccc1)(c1ccccc1)c1ccccc1", "growth inhibition (%)": 46.4}
{"MOLECULE": "CCN(CC)CCOCCO", "growth inhibition (%)": -8.6}

Record growth inhibition per entry; entries follow.
1. C=C1C(=O)O[C@H]2[C@@H](O)[C@H](C)CCC[C@]3(C)O[C@H]3CC[C@@]3(C)O[C@@H]3C[C@@H]12
2. O=C1NC2Cc3ccccc3C(C2)O1 (stereo not drawn)

A:
[19.4, 2.8]

* * *

# PROTOCOL_TEXT: NCI Yeast Anticancer Drug Screen. Data for the bub3 strain (AID 167)
# PARTICULARS: S. cerevisiae bub3 mutant strain, at 50.0 µM, active compounds read high
This is part of a sample that, as a whole, favours compounds with a hit. Of some 79,000 tested, about 15% had one in any assay.
Provide the recorded growth inhibition for the entries that follow.
Numbers only, in %.

{"MOLECULE": "Cc1nc(=O)n2c(c1C(=O)Nc1ccc(Cl)cc1)NCC2", "growth inhibition (%)": 2.35}
{"MOLECULE": "N#Cc1nc(-c2ccco2)oc1N", "growth inhibition (%)": -10.2}
{"MOLECULE": "Cc1ccnc(C2=C(O)c3ccccc3C2=O)c1", "growth inhibition (%)": -2.8}
{"MOLECULE": "c1ccc(C[n+]2ccc3c(c2)CCCC3)cc1", "growth inhibition (%)": 19.1}
{"MOLECULE": "Cc1ccc(NCCN(C)C)c2c(=O)c3cccc(O)c3sc12", "growth inhibition (%)": 40.4}
{"MOLECULE": "O=C(N/N=C/c1ccccc1F)c1ccncc1", "growth inhibition (%)": -7.65}
{"MOLECULE": "CCC(C)(O)C(C)(O)CC (centres undefined)", "growth inhibition (%)": -13.8}
{"MOLECULE": "COc1ccc(NC(=O)Nc2cc(Cl)ccc2C)c(Cl)c1", "growth inhibition (%)": 30.4}
{"MOLECULE": "Cc1cccc(O)c1C(=O)O", "growth inhibition (%)": 9.05}
{"MOLECULE": "N#CCC(=O)N/N=C(\\C#N)c1ccccc1", "growth inhibition (%)": -18.1}

Record growth inhibition per entry; entries follow.
1. NOCc1cc(Cl)sc1Cl
2. CC1(C)OC12C=CC1C2C2CCC1C21OC1(C)C (centres undefined)
3. Cc1nc2ccc(N)cc2oc1=O
4. COc1ccc([Se][Se]c2ccc(OC)cc2NC(C)=O)c(NC(C)=O)c1
5. O=C(O)C1CCCCC1C(=O)Nc1nc2ccccc2[nH]1 (centres undefined)

A:
1. -23.9
2. -7.3
3. 0.8
4. 27.9
5. -57.9

Record growth inhibition per entry; entries follow.
1. C/C(=N/Nc1ccc([N+](=O)[O-])cc1[N+](=O)[O-])c1ccc(Sc2ccc(/C(C)=N/Nc3ccc([N+](=O)[O-])cc3[N+](=O)[O-])cc2)cc1
2. COC1=CC(=O)C(CC=C(C)C)=CC1=O
3. O=C(O)c1ccc(O)cc1
4. CCCCCP(=O)(CCCCC)C1CCCC1
5. CC(O)(C#Cc1ccccc1)c1nc2ccccc2s1 (centres undefined)
6. NC(N)=NC(=O)c1ccccc1

A:
1. -14.9
2. -8.9
3. 1.7
4. 49.1
5. 17.2
6. -0.55

* * *

# PROTOCOL_TEXT: NCI Yeast Anticancer Drug Screen. Data for the mlh1 rad18 strain (AID 175)
# PARTICULARS: S. cerevisiae mlh1 rad18 strain growth inhibition; at 50.0 µM; active compounds read high
This is part of a sample that, as a whole, favours compounds with a hit. Of some 79,000 tested, about 15% had one in any assay. Activity calls are given as the source filed them. Rule as the data show it: active = growth inhibition above about 70%; inactive = the rest.
Provide the recorded growth inhibition for the entries that follow.

Here's what some known entries look like.
{"COMPOUND": "Cc1cc(Br)cc2c1NC(=O)C(C)C2C (stereo not drawn)", "RESULT": "1.1% (inactive)"}
{"COMPOUND": "CCc1occc(=O)c1O", "RESULT": "-9.1% (inactive)"}

Record growth inhibition per entry; entries follow.
1. C/C(C#CC1=CCCCC1)=N\Nc1ccc([N+](=O)[O-])cc1[N+](=O)[O-]
2. CC1CC(C)OC(C)(Cc2ccccc2)O1 (stereo not drawn)
3. CCN(CC)c1ccc(-c2c3ccccc3nc3ccccc23)cc1
4. Cc1ccc(Cl)cc1N
5. COc1ccc2nc3cc([N+](=O)[O-])ccc3c(Nc3ccc(S(=O)(=O)N=C(N)N)cc3)c2c1
6. COC(=O)/C=C/c1cc2c(cc1-c1c(C(=O)O)cc(OC)c(OC)c1OC)OCO2
7. Cc1cccn2nnnc12

A:
1.1% (inactive)
-13.9% (inactive)
-3.5% (inactive)
18.8% (inactive)
53.9% (inactive)
-8.05% (inactive)
-10.8% (inactive)
